Below, each entry is listed alongside its reported inhibition at 0.5 µM.
# System Name: UniProt:Q9UM73
# Sequence (Q9UM73 19-1620): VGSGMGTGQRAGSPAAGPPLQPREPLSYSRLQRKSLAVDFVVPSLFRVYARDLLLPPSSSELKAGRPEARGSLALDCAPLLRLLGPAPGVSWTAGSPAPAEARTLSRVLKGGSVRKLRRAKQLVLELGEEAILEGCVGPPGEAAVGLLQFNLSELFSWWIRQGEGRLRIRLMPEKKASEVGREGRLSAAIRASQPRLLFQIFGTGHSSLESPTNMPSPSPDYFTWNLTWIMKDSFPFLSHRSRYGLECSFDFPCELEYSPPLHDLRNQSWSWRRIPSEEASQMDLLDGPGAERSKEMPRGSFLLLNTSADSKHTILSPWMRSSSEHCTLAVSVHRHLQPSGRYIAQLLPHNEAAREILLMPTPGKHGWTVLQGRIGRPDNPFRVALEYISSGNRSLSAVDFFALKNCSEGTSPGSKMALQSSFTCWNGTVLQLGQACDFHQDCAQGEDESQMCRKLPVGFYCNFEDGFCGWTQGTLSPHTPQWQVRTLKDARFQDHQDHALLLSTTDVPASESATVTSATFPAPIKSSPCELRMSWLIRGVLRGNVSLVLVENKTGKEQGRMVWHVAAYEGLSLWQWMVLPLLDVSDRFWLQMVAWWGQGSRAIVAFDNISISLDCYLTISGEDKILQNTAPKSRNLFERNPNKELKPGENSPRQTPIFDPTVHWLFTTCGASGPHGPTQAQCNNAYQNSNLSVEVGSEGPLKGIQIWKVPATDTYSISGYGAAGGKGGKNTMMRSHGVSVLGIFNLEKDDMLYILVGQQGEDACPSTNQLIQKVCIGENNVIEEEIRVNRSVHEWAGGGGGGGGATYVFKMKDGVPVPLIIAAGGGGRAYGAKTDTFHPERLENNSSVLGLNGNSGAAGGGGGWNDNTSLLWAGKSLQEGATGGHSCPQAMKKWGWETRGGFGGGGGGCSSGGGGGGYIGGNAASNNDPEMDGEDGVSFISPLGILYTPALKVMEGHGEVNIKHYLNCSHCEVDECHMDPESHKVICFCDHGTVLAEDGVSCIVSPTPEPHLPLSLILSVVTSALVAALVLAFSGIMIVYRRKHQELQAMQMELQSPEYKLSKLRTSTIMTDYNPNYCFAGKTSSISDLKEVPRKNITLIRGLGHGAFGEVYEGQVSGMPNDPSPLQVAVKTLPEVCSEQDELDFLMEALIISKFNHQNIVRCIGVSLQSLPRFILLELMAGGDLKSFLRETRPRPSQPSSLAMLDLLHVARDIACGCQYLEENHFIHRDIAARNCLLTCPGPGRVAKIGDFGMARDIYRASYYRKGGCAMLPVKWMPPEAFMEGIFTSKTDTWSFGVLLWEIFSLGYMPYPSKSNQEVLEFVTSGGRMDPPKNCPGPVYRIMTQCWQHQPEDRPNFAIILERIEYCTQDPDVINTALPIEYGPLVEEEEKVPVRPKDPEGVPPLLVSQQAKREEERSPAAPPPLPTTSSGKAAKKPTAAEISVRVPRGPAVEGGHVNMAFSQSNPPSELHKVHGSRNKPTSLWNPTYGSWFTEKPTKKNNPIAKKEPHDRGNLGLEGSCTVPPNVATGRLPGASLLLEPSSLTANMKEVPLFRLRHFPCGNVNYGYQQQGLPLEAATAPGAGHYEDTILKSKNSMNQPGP
# Assay Text: Reaction Biology HotSpot kinase assay
# Type: biochemical
# Assay Setup: 500 nM compound; read-out: Percentage kinase inhibition ALK
Measurement Type: inhibition at 0.5 µM (%)

INSERT INTO assay_data (smiles_text, observed_value) VALUES
  ('Cc1ccc(C(=O)Nc2ccc(CN3CCN(C)CC3)c(C(F)(F)F)c2)cc1C#Cc1cnc(N)c2ccccc12', 0),
  ('Cc1ccc(C(=O)Nc2ccc(CN3CCN(C)CC3)c(C(F)(F)F)c2)cc1C#Cc1c(N)ncc2ccc(Cl)cc12', 0),
  ('COc1cc2nc(N)nc(C#Cc3cc(C(=O)Nc4ccc(CN5CCN(C)CC5)c(C(F)(F)F)c4)ccc3C)c2cc1OC', 2),
  ('Cc1ccc(C(=O)Nc2ccc(CN3CCN(C)CC3)c(C(F)(F)F)c2)cc1C#Cc1cc(N)nc2ccccc12', 1),
  ('Cc1ccc(C(=O)Nc2ccc(CN3CCN(C)CC3)c(C(F)(F)F)c2)cc1C#Cc1cnc(N)c2ncccc12', 0);

---

# System Name: KDR/VEGFR2 (Homo sapiens (Human), UniProt P35968)
# Sequence (P35968 20-1356): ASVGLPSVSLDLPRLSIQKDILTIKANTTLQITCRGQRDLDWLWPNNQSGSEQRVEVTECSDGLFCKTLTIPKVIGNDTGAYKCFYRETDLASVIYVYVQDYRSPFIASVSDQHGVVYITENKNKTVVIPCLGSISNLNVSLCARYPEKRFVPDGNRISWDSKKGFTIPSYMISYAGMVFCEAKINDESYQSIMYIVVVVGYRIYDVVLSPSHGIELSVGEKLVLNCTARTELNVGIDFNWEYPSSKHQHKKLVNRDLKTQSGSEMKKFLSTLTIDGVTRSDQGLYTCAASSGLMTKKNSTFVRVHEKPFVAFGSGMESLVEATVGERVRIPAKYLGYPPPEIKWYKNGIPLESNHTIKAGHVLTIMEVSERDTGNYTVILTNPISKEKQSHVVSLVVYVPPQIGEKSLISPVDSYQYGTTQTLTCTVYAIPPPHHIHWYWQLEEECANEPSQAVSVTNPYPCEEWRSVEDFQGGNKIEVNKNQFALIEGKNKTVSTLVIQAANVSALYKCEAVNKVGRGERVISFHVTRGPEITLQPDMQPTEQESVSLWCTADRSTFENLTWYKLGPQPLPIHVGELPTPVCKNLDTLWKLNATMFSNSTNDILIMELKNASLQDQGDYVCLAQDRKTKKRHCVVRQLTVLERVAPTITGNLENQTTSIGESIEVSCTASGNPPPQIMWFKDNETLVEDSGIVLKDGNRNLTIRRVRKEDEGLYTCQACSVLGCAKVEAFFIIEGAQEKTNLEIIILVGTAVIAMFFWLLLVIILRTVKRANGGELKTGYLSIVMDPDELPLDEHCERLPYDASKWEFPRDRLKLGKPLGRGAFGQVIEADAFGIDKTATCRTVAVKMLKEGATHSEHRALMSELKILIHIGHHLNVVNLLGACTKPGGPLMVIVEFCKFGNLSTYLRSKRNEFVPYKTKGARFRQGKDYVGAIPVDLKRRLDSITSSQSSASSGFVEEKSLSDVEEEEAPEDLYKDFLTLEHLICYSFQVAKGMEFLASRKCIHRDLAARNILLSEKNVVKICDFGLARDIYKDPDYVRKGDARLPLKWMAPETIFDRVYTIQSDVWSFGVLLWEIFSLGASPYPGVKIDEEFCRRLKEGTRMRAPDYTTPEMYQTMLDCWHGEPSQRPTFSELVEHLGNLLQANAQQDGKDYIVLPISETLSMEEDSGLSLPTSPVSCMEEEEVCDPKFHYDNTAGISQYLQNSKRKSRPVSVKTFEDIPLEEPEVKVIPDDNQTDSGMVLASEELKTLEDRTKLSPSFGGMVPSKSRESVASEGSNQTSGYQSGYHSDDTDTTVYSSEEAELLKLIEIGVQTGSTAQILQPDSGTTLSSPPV
# Assay Text: Reaction Biology HotSpot kinase assay
# Type: biochemical
# Assay Setup: 500 nM compound; read-out: Percentage kinase inhibition KDR/VEGFR2
Measurement Type: inhibition at 0.5 µM (%)

INSERT INTO measurements (compound, measurement_type, observed_value) VALUES
  ('Cc1ccc(C(=O)Nc2ccc(CN3CCN(C)CC3)c(C(F)(F)F)c2)cc1C#Cc1cnc(N)c2ncccc12 [HSN356]', 'inhibition at 0.5 µM', 97),
  ('Cc1ccc(C(=O)Nc2ccc(CN3CCN(C)CC3)c(C(F)(F)F)c2)cc1C#Cc1cnc(N)c2ccccc12 [HSN334]', 'inhibition at 0.5 µM', 94),
  ('Cc1ccc(C(=O)Nc2ccc(CN3CCN(C)CC3)c(C(F)(F)F)c2)cc1C#Cc1c(N)ncc2ccc(Cl)cc12 [HSN286]', 'inhibition at 0.5 µM', 95);

---

# System Name: UniProtKB P36888
# Assay Text: Reaction Biology HotSpot kinase assay
# Format: biochemical
# Assay Setup: 500 nM compound; read-out: % inhibition of FLT3 activity
Below, each entry is listed alongside its reported inhibition at 0.5 µM.
Measurement Type: inhibition at 0.5 µM (%)

INSERT INTO assay_data (molecule, observed_value) VALUES
  ('CCN(CC)CCNC(=O)c1ccc(C)c(C#Cc2c(N)ncc3ccc(Cl)cc23)c1 [HSN247]', 74),
  ('Cc1ccc(C(=O)Nc2ccc(CN3CCN(C)CC3)c(C(F)(F)F)c2)cc1C#Cc1cc(N)nc2ccccc12 [HSN285]', 28),
  ('CC1(COc2ccc3c(c2)ncn3-c2ccc3cccc(N4CCC(N)CC4)c3n2)COC1 [Crenolanib, reference compound]', 99),
  ('Cc1ccc(C(=O)NCCN2CCCCC2)cc1C#Cc1c(N)ncc2ccc(Cl)cc12 [HSN248]', 73),
  ('Cc1ccc(C(=O)Nc2ccc(CN3CCN(C)CC3)c(C(F)(F)F)c2)cc1C#Cc1c(N)ncc2ccccc12 [HSN352]', 93);

---

Below, each entry is listed alongside its reported inhibition at 0.5 µM.
# System Name: TRKC (Homo sapiens (Human), UniProt Q16288)
# Sequence (Q16288 32-839): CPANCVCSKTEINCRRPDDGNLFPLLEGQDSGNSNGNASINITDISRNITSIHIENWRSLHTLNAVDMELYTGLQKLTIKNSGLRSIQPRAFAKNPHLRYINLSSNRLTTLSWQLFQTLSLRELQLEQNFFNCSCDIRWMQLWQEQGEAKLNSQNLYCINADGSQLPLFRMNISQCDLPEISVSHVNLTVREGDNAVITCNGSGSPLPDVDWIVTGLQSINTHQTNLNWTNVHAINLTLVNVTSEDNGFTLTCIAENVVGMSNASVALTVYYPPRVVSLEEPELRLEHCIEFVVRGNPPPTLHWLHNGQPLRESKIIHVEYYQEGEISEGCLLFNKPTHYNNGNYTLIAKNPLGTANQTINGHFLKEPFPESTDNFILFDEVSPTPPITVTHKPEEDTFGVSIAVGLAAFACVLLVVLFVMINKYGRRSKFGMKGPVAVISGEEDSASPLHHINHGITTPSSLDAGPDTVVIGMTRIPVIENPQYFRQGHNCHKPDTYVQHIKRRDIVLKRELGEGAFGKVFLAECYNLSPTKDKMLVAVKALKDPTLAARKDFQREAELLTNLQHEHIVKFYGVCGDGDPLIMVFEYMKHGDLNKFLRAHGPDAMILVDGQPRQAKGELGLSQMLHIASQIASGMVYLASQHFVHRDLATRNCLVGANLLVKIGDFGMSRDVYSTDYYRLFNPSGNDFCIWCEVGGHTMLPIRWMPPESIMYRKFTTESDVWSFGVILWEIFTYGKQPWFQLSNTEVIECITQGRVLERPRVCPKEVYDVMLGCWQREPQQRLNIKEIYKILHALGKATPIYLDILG
# Assay Text: Reaction Biology HotSpot kinase assay
# Type: biochemical
# Assay Setup: 500 nM compound, 100 μM radiolabeled ATP
Measurement Type: inhibition at 0.5 µM (%)

INSERT INTO results (compound, measurement_type, observed_value) VALUES
  ('Nc1nnc2ccccc2c1C#Cc1ccc(C2=NCCN2)cc1 [HSM1796]', 'inhibition at 0.5 µM', 7),
  ('Nc1ncc2ccc(Cl)cc2c1C#Cc1ccc(C2=NC(C3CC3)CN2)cc1 (stereo not drawn) [HSM1703]', 'inhibition at 0.5 µM', 49),
  ('COc1cc2nc(N)nc(C#Cc3cc(C(=O)Nc4ccc(CN5CCN(C)CC5)c(C(F)(F)F)c4)ccc3C)c2cc1OC [HSN325]', 'inhibition at 0.5 µM', 4),
  ('Nc1ncc2ccc(Cl)cc2c1C#Cc1ccc(C2=NCCN2CCN2CCCCC2)cc1 [HSM1721]', 'inhibition at 0.5 µM', 52),
  ('CCN(CC)CCNC(=O)c1ccc(C)c(C#Cc2c(N)ncc3ccc(Cl)cc23)c1 [HSN247]', 'inhibition at 0.5 µM', 77),
  ('CC1(C)CNC(c2ccc(C#Cc3c(N)ncc4ccc(Cl)cc34)cc2)=N1 [HSM1743]', 'inhibition at 0.5 µM', 44),
  ('N=C(NO)c1cccc(C#Cc2c(N)ncc3ccc(Cl)cc23)c1 [HSM1819]', 'inhibition at 0.5 µM', 80),
  ('Nc1ncc2ccc(Cl)cc2c1C#Cc1ccc(C2=NCCN2)cc1 [HSM1651]', 'inhibition at 0.5 µM', 64),
  ('N=C(NO)c1ccc(C#Cc2c(N)ncc3ccc(Cl)cc23)cc1 [HSM1820]', 'inhibition at 0.5 µM', 74);

---

# System Name: c-kit (Homo sapiens (Human))
# Sequence (P10721 26-976): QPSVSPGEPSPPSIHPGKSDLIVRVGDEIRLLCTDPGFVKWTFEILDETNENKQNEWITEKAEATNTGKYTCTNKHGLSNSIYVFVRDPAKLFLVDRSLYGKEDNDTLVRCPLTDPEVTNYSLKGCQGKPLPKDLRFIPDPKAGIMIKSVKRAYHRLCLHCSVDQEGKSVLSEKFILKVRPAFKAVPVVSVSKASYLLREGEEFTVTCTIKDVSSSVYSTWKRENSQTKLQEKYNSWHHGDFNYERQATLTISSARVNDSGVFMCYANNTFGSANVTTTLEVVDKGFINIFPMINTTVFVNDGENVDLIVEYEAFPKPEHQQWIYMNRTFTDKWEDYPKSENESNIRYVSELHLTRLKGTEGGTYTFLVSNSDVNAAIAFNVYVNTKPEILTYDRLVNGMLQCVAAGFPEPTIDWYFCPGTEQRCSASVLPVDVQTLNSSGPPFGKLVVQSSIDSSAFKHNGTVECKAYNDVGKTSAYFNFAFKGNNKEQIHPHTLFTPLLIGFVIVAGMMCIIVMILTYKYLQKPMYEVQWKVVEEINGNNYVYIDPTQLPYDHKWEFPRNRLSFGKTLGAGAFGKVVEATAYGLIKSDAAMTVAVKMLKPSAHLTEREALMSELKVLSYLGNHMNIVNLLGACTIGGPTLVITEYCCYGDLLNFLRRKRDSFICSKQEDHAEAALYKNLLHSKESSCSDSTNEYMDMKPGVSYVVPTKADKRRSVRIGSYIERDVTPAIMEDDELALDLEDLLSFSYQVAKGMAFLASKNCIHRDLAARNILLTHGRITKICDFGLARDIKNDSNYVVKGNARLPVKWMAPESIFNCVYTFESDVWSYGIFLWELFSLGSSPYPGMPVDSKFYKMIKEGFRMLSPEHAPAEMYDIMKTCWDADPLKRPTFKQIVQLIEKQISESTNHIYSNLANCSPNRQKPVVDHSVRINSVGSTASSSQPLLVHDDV
# Assay Text: Reaction Biology HotSpot kinase assay
# Assay type: biochemical
# Assay Setup: 500 nM compound, 100 μM radiolabeled ATP
Measurement Type: inhibition at 0.5 µM (%)

INSERT INTO results (molecule, system_name, observed_value) VALUES
  ('Nc1ncc2ccc(Cl)cc2c1C#Cc1ccc(C2=NC(C3CC3)CN2)cc1 (stereo not drawn) [HSM1703]', 'c-kit (Homo sapiens (Human))', 60),
  ('N=C(NO)c1cccc(C#Cc2c(N)ncc3ccc(Cl)cc23)c1 [HSM1819]', 'c-kit (Homo sapiens (Human))', 82),
  ('Nc1nnc2ccccc2c1C#Cc1ccc(C2=NCCN2)cc1 [HSM1796]', 'c-kit (Homo sapiens (Human))', 3),
  ('Nc1ncc2ccc(Cl)cc2c1C#Cc1ccc(C2=NCCN2CCN2CCCCC2)cc1 [HSM1721]', 'c-kit (Homo sapiens (Human))', 80),
  ('C(#Cc1cncc2ccccc12)c1ccc(C2=NCCN2)cc1 [HSM1813]', 'c-kit (Homo sapiens (Human))', 39),
  ('N#Cc1ccc(C#Cc2c(N)ncc3ccc(Cl)cc23)cc1 [HSM1611]', 'c-kit (Homo sapiens (Human))', 63);

---

Below, each entry is listed alongside its reported pIC50.
# Test system: K562
# Assay Text: IC50 proliferation assay (Alamar Blue, 72 h)
# Assay type: cell-based
# Assay Setup: Homo sapiens, K562, 72 h; read-out: IC50 (proliferation inhibition) Cell line - K562
# Procedure: IC50 proliferation assay—Cell lines and primary cells were seeded into 96-well plates the afternoon prior to treatment. Approximately 18 hours later, compounds were semi-serially diluted in dimethyl sulfoxide (DMSO) and then growth medium, and added to cells. […] Plates were read after 4 additional hours of incubation at 37° C. using a Bio-Tek Synergy HT plate reader (Bio-Tek, Winooski, VT). Data was analyzed and graphed using GraphPad Prism Software (Graphpad, La Jolla. CA). […]
pIC50: −log10 of the molar value.
Measurement Type: pIC50

INSERT INTO measurements (compound, observed_value) VALUES
  ('Cc1ccc(C(=O)NCCN2CCCCC2)cc1C#Cc1c(N)ncc2ccc(Cl)cc12 [HSN248]', 8.15),
  ('Cc1ccc(C(=O)Nc2ccc(CN3CCN(C)CC3)c(C(F)(F)F)c2)cc1C#Cc1cnc(N)c2ccccc12 [HSN334]', 8.22),
  ('Cc1ccc(C(=O)Nc2ccc(CN3CCN(C)CC3)c(C(F)(F)F)c2)cc1C#Cc1cc(N)nc2ccccc12 [HSN285]', 5.96),
  ('Cc1ccc(C(=O)Nc2ccc(CN3CCN(C)CC3)c(C(F)(F)F)c2)cc1C#Cc1c(N)ncc2ccccc12 [HSN352]', 8.70),
  ('COc1cc2nc(N)nc(C#Cc3cc(C(=O)Nc4ccc(CN5CCN(C)CC5)c(C(F)(F)F)c4)ccc3C)c2cc1OC [HSN325]', 6.35);

---

# Test system: MOLM14
# Assay Text: Anti-proliferative effects in leukemia panel
# Format: cell-based
# Assay Setup: Homo sapiens, MOLM-14
Measurement Type: IC50

INSERT INTO assay_data (smiles_text, system_name, observed_value) VALUES
  ('N#Cc1ccc(C#Cc2c(N)ncc3ccc(Cl)cc23)cc1', 'MOLM14', '> 5 µM'),
  ('Nc1nnc2ccccc2c1C#Cc1ccc(C2=NCCN2)cc1', 'MOLM14', '> 5 µM'),
  ('C(#Cc1cncc2ccccc12)c1ccc(C2=NCCN2)cc1', 'MOLM14', '> 5 µM');
